Measured AIRE transcriptional activation functional score values are reported for all entries that follow.
B1: library; numbered along this chain (parent)
chain: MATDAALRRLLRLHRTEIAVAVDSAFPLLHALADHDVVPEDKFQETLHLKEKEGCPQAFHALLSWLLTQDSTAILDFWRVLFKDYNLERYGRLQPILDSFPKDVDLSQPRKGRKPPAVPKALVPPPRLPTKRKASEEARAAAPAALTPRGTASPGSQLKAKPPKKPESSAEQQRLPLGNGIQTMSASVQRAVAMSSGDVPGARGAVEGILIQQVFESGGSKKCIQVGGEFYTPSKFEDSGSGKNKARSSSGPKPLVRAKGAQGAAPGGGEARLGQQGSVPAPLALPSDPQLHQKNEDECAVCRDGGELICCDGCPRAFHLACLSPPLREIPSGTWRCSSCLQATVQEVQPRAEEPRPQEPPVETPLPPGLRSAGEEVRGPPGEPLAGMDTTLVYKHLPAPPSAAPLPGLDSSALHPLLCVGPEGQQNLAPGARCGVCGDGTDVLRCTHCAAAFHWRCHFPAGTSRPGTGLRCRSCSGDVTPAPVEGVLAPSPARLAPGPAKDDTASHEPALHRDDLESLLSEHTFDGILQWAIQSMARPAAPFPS

variants of: B1; assay: AIRE transcriptional activation functional score (insulin promoter-GFP; nonsense median 0, synonymous median 1) (normalised score); higher = higher AIRE activity (more reporter activation); conditions: with insulin promoter-GFP reporter in HEK293
experimental.endpoint: AIRE transcriptional activation functional score

• Y85N = -0.66
• P282K = 1.2
• P315H = 0.985
• C340D = 1.7
• R336Y = 0.141
• S187T = 1.17
• G91W = 1.54
• L175P = 0.463
• K131R = -0.372
• A261H = 0.579
• T441A = 1.03
• P350D = 1.09
• G201M = 1.67
• K133F = -0.0481
• Q44C = -0.0407
• Q426K = 1.16
• G435Y = 0.365
• P116Y = 1.17
• A265K = 0.641
• V279F = 1.69
• L285P = 1.17
• T441E = 0.676
• V436D = 0.874
• Q530N = 1.52
• H35S = 0.352
• L97M = 0.762
• C449W = 0.0652
• A170C = 1.24
• P483K = 0.675
• Q225V = -0.115
• R79I = 0.217
• L366A = 0.656
• P129M = 0.564
• A461V = 1.17
• C223F = 0.324
• R336D = 1.73
• L418N = 1.02
• C449D = 0.418
• P398H = 1.24
• K501T = 1.04
• L158T = 0.209
• W78P = 0.554
• G306F = 0.459
• P125Y = 0.77
• P361Y = 1.13
• G387I = 1.59
